details: rat, in vivo, 20 mg/kg
assayEndpoint: Cmax

Request: Param item = CO[C@H]1/C=C/O[C@@]2(C)Oc3c(C)c(O)c4c(O)c(c(/C=N/N5CCN(C/C=C/c6ccccc6)CC5)c(O)c4c3C2=O)NC(=O)/C(C)=C\C=C\[C@H](C)[C@H](O)[C@@H](C)[C@@H](O)[C@@H](C)[C@H](OC(C)=O)[C@@H]1C [T-9, reference compound] ; retrieve measured Cmax.
Response: 8200 ng/mL

----------
details: mouse, in vivo, 20 mg/kg
assayEndpoint: Cmax
Answer format reminder: number followed by unit.

Request: Param item = CO[C@H]1/C=C/O[C@@]2(C)Oc3c(C)c(O)c4c(O)c(c(/C=N/N5CCN(C/C=C/c6ccccc6)CC5)c(O)c4c3C2=O)NC(=O)/C(C)=C\C=C\[C@H](C)[C@H](O)[C@@H](C)[C@@H](O)[C@@H](C)[C@H](OC(C)=O)[C@@H]1C [T-9, reference compound] ; retrieve measured Cmax.
Response: 12400 ng/mL
